Entry source: ChEMBL document CHEMBL4609991

# tested.target: Gamma-secretase
# test.protocol: Modulatory activity of gamma secretase in human SKNBE2 cells assessed as decrease in Abeta42 levels incubated for 6 hrs by sandwich ELISA
readout.kind: pIC50
Please report pIC50 as the negative decimal logarithm of the molar concentration, giving only the number.

Query: Determine its reported pIC50: CCNC(=O)c1ccc(-c2c(C)nc3c(OCc4cccc(-c5ccccc5)c4)cccn23)cn1.Cl
Reply: 7.21

Query: Determine its reported pIC50: CCNC(=O)c1ccc(-c2c(C)nc3c(OCc4cccc(F)c4)cccn23)cn1
Reply: 6.62

Query: Determine its reported pIC50: CCNC(=O)c1ccc(-c2c(COC)nc3c(OCc4ccccc4)cccn23)cn1
Reply: 5.21

Query: Determine its reported pIC50: CCNC(=O)c1ccc(-c2c(C)nc3c(OCc4c(C)cc(C)cc4C)cccn23)cn1
Reply: 6.77

Query: Determine its reported pIC50: CCNC(=O)c1ccc(-c2c(C)nc3c(OCCc4ccccc4)cccn23)cn1
Reply: 5.96

Query: Determine its reported pIC50: CCNC(=O)c1ccc(-c2c(C)nc3c(OCc4ccccc4F)cccn23)cn1.Cl
Reply: 6.82

Query: Determine its reported pIC50: CCNC(=O)c1ccc(-c2c(C)nc3c(OCc4ccc(C)cc4)cccn23)cn1
Reply: 6.43

Query: Determine its reported pIC50: CCNC(=O)c1ccc(-c2c(C)nc3c(OCc4ccc(-c5ccccc5)cc4)cccn23)cn1.Cl
Reply: 7.04

Query: Determine its reported pIC50: CCNC(=O)c1ccc(-c2c(C)nc3c(OCc4ccccc4-c4ccccc4)cccn23)cn1
Reply: 6.41

Query: Determine its reported pIC50: CCNC(=O)c1ccc(-c2c(C)nc3c(OCc4ccccc4)cccn23)cn1
Reply: 6.24

====

# test.protocol: Ratio of drug concentration in ddY mouse brain to IC50 for gamma secretase in human SKNBE2 cells assessed as decrease in Abeta42 levels incubated for 6 hrs by sandwich ELISA
# Assay type: ADME, cell-based
readout.kind: Ratio (nmol/g/uM)
Response body: numeric value in nmol/g/uM, unit text excluded.

Query: Determine its reported Ratio: CCN1Cc2cc(-c3c(C)nc4c(OCc5ccccc5)cccn34)ccc2C1=O.Cl
Reply: 1.8

Query: Determine its reported Ratio: CCNC(=O)c1ccc(-c2c(C)nc3c(OCc4cccc(-c5ccccc5)c4)cccn23)cn1.Cl
Reply: 12

Query: Determine its reported Ratio: CCNC(=O)c1ccc(-c2c(C)nc3c(OCc4ccc(-c5ccccc5)cc4)cccn23)cn1.Cl
Reply: 51

Query: Determine its reported Ratio: CCNC(=O)c1ccc(-c2c(C)nc3c(OCc4ccccc4F)cccn23)cn1.Cl
Reply: 5

====

# tested.target: Gamma-secretase
# test.protocol: Modulatory activity of gamma secretase in human SKNBE2 cells assessed as decrease in Abeta42 levels incubated for 6 hrs by sandwich ELISA
readout.kind: IC50

Query: Determine its reported IC50: CCNC(=O)c1ccc(-c2c(C)nc3c(OCc4ccccc4)cccn23)cc1F
Reply: > 50 µM

Query: Determine its reported IC50: CCN1CCc2cc(-c3c(C)nc4c(OCc5ccccc5)cccn34)ccc2C1=O
Reply: > 50 µM

Query: Determine its reported IC50: CCN1C(=O)c2ccc(-c3c(C)nc4c(OCc5ccccc5)cccn34)cc2C1(C)C
Reply: > 2 µM

Query: Determine its reported IC50: CCNC(=O)c1ccc(-c2c(C)nc3c(OCc4cccc(C(=O)N(C)C)c4)cccn23)cn1
Reply: > 10 µM
